study_target: NPSR (Homo sapiens)
measurement_description: Intracellular calcium assay
pIC50: −log10 of the molar value.

| compound | pIC50 |
| --- | --- |
| COc1ccc(C2c3c(N)nc(Cc4ccccc4)nc3Oc3ccc4ccccc4c32)cc1OC (stereo not shown) [Compound 10a] | < 4.52 |

###

study_target: UniProtKB Q6W5P4
Sequence (Q6W5P4 1-371): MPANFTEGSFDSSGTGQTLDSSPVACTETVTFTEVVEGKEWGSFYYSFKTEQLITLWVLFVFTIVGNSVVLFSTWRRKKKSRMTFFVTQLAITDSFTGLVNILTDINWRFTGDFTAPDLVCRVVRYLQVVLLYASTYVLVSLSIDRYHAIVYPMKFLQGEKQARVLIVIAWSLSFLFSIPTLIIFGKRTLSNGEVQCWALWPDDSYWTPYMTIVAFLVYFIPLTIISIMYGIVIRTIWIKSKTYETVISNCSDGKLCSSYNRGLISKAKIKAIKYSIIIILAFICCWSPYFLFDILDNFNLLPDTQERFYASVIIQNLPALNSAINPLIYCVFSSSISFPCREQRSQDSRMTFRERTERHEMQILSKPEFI
pKi: −log10 of the molar value.

| compound | study_target | pKi |
| --- | --- | --- |
| COc1ccc(C2c3c(ncn(CCN4CCOCC4)c3=N)Oc3ccc4ccccc4c32)cc1OC (stereo not shown) | UniProtKB Q6W5P4 | 6.68 |
